Reference source: ChEMBL document CHEMBL1201862

- System: HCT-116
- protocolSummary: NCI tumour cell line growth inhibition, 48 h
Calls of active or inactive are those of the source. Cut-off read from the data, not from the text of the source: active = GI50 up to about 1.1 µM and inactive = higher.
Listed compounds paired with reported GI50

Cc1cn(CCCCCCC2=NCCCN2)c(=O)[nH]c1=O: > 100 µM (inactive)

Consider the compound `O=c1oc2c(ccc3occc32)c(N2CCCCC2)c1-c1ccccc1` and give its measured GI50.
> 100 µM (inactive)

Can you look up the measured GI50 of `CCCCCCc1cn([C@H]2C[C@H](O)[C@@H](CO)O2)c(=O)[nH]c1=O` for me?
> 100 µM (inactive)

###

- System: HOP-92
- protocolSummary: NCI tumour cell line growth inhibition, 48 h
Activity calls are given as the source filed them. Cut-off read from the data, not from the text of the source: active = GI50 up to about 1.1 µM and inactive = higher.
Please state which outcome applies, choosing from active, inactive

Reference set (5 entries):
CCCCCCCCCCC/C(=N/O)c1ccc(O)c2ncccc12: active
N#C/N=C(/N)NCO: inactive
CCOC(=O)c1c(Nc2ccccc2)sc2cccnc12: inactive
COc1c2c(c3c(c1C1OC(C)[C@@H](C)O1)CC(C)(C)O3)C(=O)c1ccccc1C2=O (stereo partly specified): inactive
c1ccc2c3c(c(N4CCOCC4)nc2c1)CCCC3: inactive

Look up the recorded call for CC(C)C(C/C=C1/CC(CO)(COC(=O)C(C)(C)C)OC1=O)C(C)C (stereo unspecified) in this test.
inactive
